The origin of these recorded values is PubChem BioAssay (NCATS).

experiment: Quantitative High-Throughput drug screen in 47 multiple myeloma cell lines against the NCATS MIPE library collection: KMS11_JCRBsus cell viability assay (AID 1919873); settings: KMS11 myeloma viability, CellTiter-Glo ATP luminescence, 48 h; series mostly up to 45.8 µM; also: nearly all actives have a fitted effect of over 50% in size
Inconclusive results are not listed. Active and inactive are the calls of the source. Calls follow the shape of the dose curve; as a rule, active = well fitted cell-killing curve with a large enough effect; inconclusive = small, poorly fitted or top-dose-only effect, or effect the other way; inactive = no such curve, though single readings can be large or run the other way.
Labels: class 1 for active, class 0 for inactive

- molecule: "O=C(O)CO.[NH2-].[NH2-].[Pt+2]"
  label: "class 0"
- molecule: "CC1COC2(CCN(c3nc(=O)c4cc(C(F)(F)F)cc([N+](=O)[O-])c4s3)CC2)O1 (centres undefined)"
  label: "class 0"
- molecule: "COc1ccc(C=Cc2cc(OC)c(OC)c(OC)c2)cc1O"
  label: "class 0"
- molecule: "COc1cc2ncn(-c3cc(OCc4ccccc4C(F)(F)F)c(C(N)=O)s3)c2cc1OC"
  label: "class 1"
